Source of measurements: patent US20250206828A1

# TARGET ENTITY: T1, human adenosine A2A receptor (A2aR) (human, UniProt P29274 1-412)
# T1 construct: Assays used HEK293 cells stably overexpressing human A2aR (BPS Bioscience 79381), human A2aR-expressing CHO cells, or endogenous A2aR on human PBMC; also called human A2aR; hA2aR
# T1 sequence (P29274 whole entry): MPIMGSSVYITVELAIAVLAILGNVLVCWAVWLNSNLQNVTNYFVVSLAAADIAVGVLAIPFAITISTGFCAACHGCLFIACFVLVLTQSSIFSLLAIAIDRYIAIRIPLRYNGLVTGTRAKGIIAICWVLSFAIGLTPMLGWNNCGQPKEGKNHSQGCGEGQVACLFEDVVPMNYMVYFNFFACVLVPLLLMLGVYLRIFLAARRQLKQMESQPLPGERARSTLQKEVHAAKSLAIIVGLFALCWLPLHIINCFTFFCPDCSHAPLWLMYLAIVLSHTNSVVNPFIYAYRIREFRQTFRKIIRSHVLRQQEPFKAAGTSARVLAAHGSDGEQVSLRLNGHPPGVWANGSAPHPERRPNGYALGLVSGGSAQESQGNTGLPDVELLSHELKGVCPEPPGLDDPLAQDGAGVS
# EXPERIMENT SUMMARY: flow cytometry, HEK293-hA2aR cells, supernatant 1 ug/ml
ASSAY METRIC: MFI (MFI)
Numbers only, in MFI.

{"BINDER": "Hu1B5-H2/Hu1B5-L4 (antibody, human IgG1, V domains shown, Human IgG1 FES (L234F, L235E, P331S) and human Ig kappa constant domains) VH: EVQLVQSGAEVKKPGASVKVSCKTSGFTFTRFWMNWVRQAPGQGLEWMGRIDPYDSETQYNHKFWDRVTMTVDTSTSTVYMELSSLRSEDTAVYYCGRSLYGKGDYWGQGTTVTVSS VL: DVVMTQSPLSLPVTPGEPASISCRSSQSIVHSNGNTYLEWYLQKPGQSPQLLIYKVSNRFSGVPDRFSGSGSGTDFTLKISRVEAEDVGVYYCFQGSHVPLTFGGGTKVEIK", "UNIT ABBREV": "MFI", "MFI": 1630}

Lab note: next binder to report on.
Supply reported MFI belonging to this binder: Hu1B5-H3/Hu1B5-L5 (antibody, human IgG1, V domains shown, Human IgG1 FES (L234F, L235E, P331S) and human Ig kappa constant domains) VH: EVQLVQSGAEVKKPGASVKVSCKTSGFTFTRFWMNWVRQAPGQGLEWIGRIDPYDSETQYNHKFWDRATLTVDTSSSTVYMELSSLRSEDTAVYYCGRSLYGKGDYWGQGTTVTVSS VL: DIVMTQSPDSLAVSLGERATINCRSSQSIVHSNGNTYLEWYQQKPGQPPKLLIYKVSNRFSGVPDRFSGSGSGTDFTLTISSLQAEDVAVYYCFQGSHVPLTFGGGTKVEIK 686
